procedure_text: Pharmacokinetics of CorA in plasma of CD-1 mice
Type: in vivo
measurement_conditions: female, mouse; plasma; 100 mg/kg PO; CD-1 mice; read-out: Vz/F_obs
experimental_readout: Vd/F (L/kg)
// return numeric value only (unit: L/kg, not printed)

Need Vd/F, item C/C=C/C/C=C(\C)C(O)CC/C(C)=C/C=C(\C)C(=O)c1c(O)cc([C@H](C)CC/C=C/NC(=O)OC)oc1=O (stereo partly shown) 4.09

----------
procedure_text: Biodistribution of CorA to organs/tissues of CD-1 mice (LC-MS/MS)
Type: in vivo
measurement_conditions: female, CD-1, mouse; lung; 100 mg/kg SC
experimental_readout: Cmax
Your reply should be a number followed by the unit it is expressed in.

Need Cmax, item C/C=C/C/C=C(\C)C(O)CC/C(C)=C/C=C(\C)C(=O)c1c(O)cc([C@H](C)CC/C=C/NC(=O)OC)oc1=O (stereo partly shown) 1270 ng/g
